Each recorded value in this set is attributed to patent US10676468B2.

- Test system: Hedgehog Signaling Pathway
- measurement-description: Gli-Luc reporter gene cell assay in C3H10T1/2/Gli-Luc cells stimulated with Shh
- Format: cell-based, mouse
- details: Mus musculus, C3H 10T1/2, 24 h, 30 nM Shh, luciferase activity (RLU), read-out: IC50 values of compounds that inhibit Hh pathway
reported-property: IC50 (nM)
Your answer is read as nM, so omit the unit and give the number.

Inquiry: Recorded IC50 for Cc1cc(N2C[C@@H](C)N(C)[C@@H](C)C2)ccc1C(=O)Nc1ccc(Cl)c(-c2nc3ccccc3o2)c1 [Example 206] , please?
Reply text: 27

Inquiry: Entry to check: CCN1[C@H](C)CN(c2ccc(C(=O)Nc3ccc(Cl)c(-c4nc5cscc5[nH]4)c3)c(Cl)c2)C[C@@H]1C [Example 203]
Reply text: 0.29

Inquiry: Entry to check: CCN1[C@H](C)CN(c2ccc(C(=O)Nc3ccc(Cl)c(-c4nc5ccccc5[nH]4)c3)c(C)c2)C[C@@H]1C [Example 100]
Reply text: 0.58

Inquiry: Entry to check: Cc1cc(N2C[C@@H](C)O[C@@H](C)C2)ccc1C(=O)Nc1ccc(Cl)c(-c2nc3ccccc3[nH]2)c1 [Example 32]
Reply text: 7.2

Inquiry: Entry to check: Cc1cc(N2C[C@@H](C)N(C)[C@@H](C)C2)ccc1C(=O)Nc1ccc(Cl)c(-c2nc(C)c(-c3cccs3)[nH]2)c1 [Example 143]
Reply text: 2.3

Inquiry: Entry to check: C[C@@H]1CN(c2ccc(C(=O)Nc3ccc(Cl)c(-c4nc5ccccc5[nH]4)c3)c(Cl)c2)C[C@H](C)N1C [Example 94]
Reply text: 0.63

Inquiry: Entry to check: Cc1ccc(NC(=O)c2ccc(N3C[C@@H](C)N(C)[C@@H](C)C3)cc2Cl)cc1-c1nc2ccc(Cl)cc2[nH]1 [Example 113]
Reply text: 27

* * *

- Test system: Hedgehog Signaling Pathway
- measurement-description: SHH-induced differentiation of C3H10T1/2 cells into osteoblastic cells, intracellular alkaline phosphatase activity
- Assay type: cell-based, mouse
- details: Mus musculus, C3H 10T1/2, 120 h, 10 nM SHH-N, 5 days, alkaline phosphatase activity (OD405), read-out: IC50 values of compounds that inhibit Hh pathway
pIC50: −log10 of the molar value.
Please use 1.0 whenever pIC50 is not below 8, and 0.0 whenever it is.

Inquiry: Quick check: does Cc1cc(-c2ccc(Cl)cc2)ccc1C(=O)Nc1ccc(Cl)c(-c2nc3ccccc3[nH]2)c1 [Example 8] have pIC50 greater than or equal to 8?
Reply text: 1.0

Inquiry: Entry to check: Cc1cc(-c2ccc(C(F)(F)F)cc2)ccc1C(=O)Nc1cccc(-c2nc3ccccc3[nH]2)c1Cl [Example 64]
Reply text: 0.0

Inquiry: Entry to check: Cc1cc(C(=O)Nc2ccc(Cl)c(-c3nc4ccccc4[nH]3)c2)ccc1-c1ccc(C(F)(F)F)cc1 [Example 14]
Reply text: 1.0

Inquiry: Entry to check: O=C1c2ccc(-c3ccc(C(F)(F)F)cc3)cc2OCN1c1ccc(Cl)c(-c2nc3ccccc3[nH]2)c1 [Example 28]
Reply text: 0.0

Inquiry: Entry to check: Cc1cc(-c2ccc(C(F)(F)F)cc2)ccc1C(=O)N(C)c1ccc(Cl)c(-c2nc3ccccc3[nH]2)c1 [Example 48]
Reply text: 0.0

Inquiry: Entry to check: Cc1cc(-c2ccc(N)cc2)ccc1C(=O)Nc1ccc(Cl)c(-c2nc3ccccc3[nH]2)c1 [Example 24]
Reply text: 0.0

Inquiry: Entry to check: Cc1cc(C(=O)Nc2cnc(C)c(-c3nc4ccccc4[nH]3)c2)ccc1N1C[C@@H](C)N(C)[C@@H](C)C1 [Example 89]
Reply text: 0.0

Inquiry: Entry to check: Cc1cc(-c2ccc(C#N)cc2)ccc1C(=O)Nc1ccc(Cl)c(-c2nc3ccccc3[nH]2)c1 [Example 6]
Reply text: 1.0

Inquiry: Entry to check: Cc1c(C(=O)Nc2ccc(Cl)c(-c3ncc(-c4ccsc4)[nH]3)c2)ccc(N2C[C@@H](C)N(C)[C@@H](C)C2)c1F [Example 141]
Reply text: 1.0

Inquiry: Entry to check: Cc1csc(-c2cnc(-c3cc(NC(=O)c4ccc(N5C[C@@H](C)N(C)[C@@H](C)C5)cc4Cl)ccc3Cl)[nH]2)c1 [Example 136]
Reply text: 1.0

Inquiry: Entry to check: CC(=O)c1ccc(-c2ccc(C(=O)Nc3ccc(Cl)c(-c4nc5ccccc5[nH]4)c3)c(C)c2)cc1 [Example 9]
Reply text: 0.0

Inquiry: Entry to check: CCN1[C@H](C)CN(c2ccc(C(=O)Nc3ccc(Cl)c(-c4ncc(-c5cccs5)[nH]4)c3)c(Cl)c2)C[C@@H]1C [Example 158]
Reply text: 1.0

Inquiry: Entry to check: Cc1cc(N2C[C@@H](C)N(C)[C@@H](C)C2)ccc1C(=O)Nc1ccc(Cl)c(-c2ncc[nH]2)c1 [Example 166]
Reply text: 0.0

Inquiry: Entry to check: C[C@@H]1CN(c2ccc(C(=O)Nc3cnc(Cl)c(-c4nc5ccc(Cl)cc5[nH]4)c3)c(Cl)c2)C[C@H](C)N1C [Example 130]
Reply text: 0.0

Inquiry: Entry to check: C[C@@H]1CN(c2ccc(C(=O)Nc3ccc(Cl)c(-c4ncc(-c5ccco5)[nH]4)c3)c(C(F)(F)F)c2)C[C@H](C)N1C [Example 146]
Reply text: 1.0

Inquiry: Entry to check: C[C@@H]1CN(c2ccc(C(=O)Nc3ccc(Cl)c(-c4nc5ccccc5[nH]4)c3)c(C(F)(F)F)c2)C[C@H](C)N1C [Example 119]
Reply text: 1.0

Inquiry: Entry to check: Cc1cc(-c2ccc(C(F)(F)F)cc2)ccc1C(=O)Nc1ccc(Cl)c(-c2ncc(-c3ccc(F)cc3)[nH]2)c1 [Example 78]
Reply text: 1.0

Inquiry: Entry to check: C[C@@H]1CN(c2ccc(C(=O)Nc3cnc(Cl)c(-c4nc5ccccc5[nH]4)c3)c(Cl)c2)C[C@H](C)O1 [Example 128]
Reply text: 1.0

Inquiry: Entry to check: Cc1cc(-c2ccc(C(F)(F)F)cc2)ccc1C(=O)Nc1ccc(Cl)c(-c2nc3cnccc3[nH]2)c1 [Example 49]
Reply text: 1.0

Inquiry: Entry to check: Cc1cc(N2CCCCC2)ccc1C(=O)Nc1ccc(Cl)c(-c2nc3ccccc3[nH]2)c1 [Example 31]
Reply text: 0.0

Inquiry: Entry to check: Cc1cc(N2CCOCC2)ccc1C(=O)Nc1ccc(Cl)c(-c2nc3ccccc3[nH]2)c1 [Example 30]
Reply text: 0.0

Inquiry: Entry to check: O=c1c2ccc(-c3ccc(C(F)(F)F)cc3)cc2ncn1-c1ccc(Cl)c(-c2nc3ccccc3[nH]2)c1 [Example 27]
Reply text: 0.0

Inquiry: Entry to check: C[C@@H]1CN(c2ccc(C(=O)Nc3ccc(Cl)c(-c4ncc(C5CC5)[nH]4)c3)c(Cl)c2)C[C@H](C)N1C [Example 176]
Reply text: 1.0

Inquiry: Entry to check: Cc1cc(-c2ccc(C(F)(F)F)cc2)ccc1C(=O)Nc1ccc(Cl)c(-c2nc3ccccc3[nH]2)c1 [Example 21]
Reply text: 1.0

Inquiry: Entry to check: C[C@@H]1CN(c2ccc(C(=O)Nc3ccc(Cl)c(-c4cnc5ccccc5n4)c3)c(Cl)c2)C[C@H](C)N1C [Example 204]
Reply text: 0.0
